These entries and their values trace back to PubChem BioAssay AID1159580.

protocolSummary: chemical genetic growth profiling, strain panel (AID 1159580);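 further: tested at 20 µM; growth read once vehicle control cultures reached saturation at 30 °C; 1 = growth at the plate median or of vehicle wells; lower values mean less growth of the strain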
measurementContext: S. cerevisiae deletion strains, growth OD, locus YDL035C, strain GPR1
Screen size: about 5,500 compounds; about 2,000 (36%) were called active. Not shown: some 18% with an inconclusive outcome. No stated cut-off is given here; in the data, active means normalized growth mostly below about 0.91 (no sharp cut-off); inconclusive means no clear call, values can overlap the other calls; inactive means mostly above about 0.92. This is one part of the list.
Please state which outcome applies, choosing from TRUE (active), FALSE (inactive)

Please indicate how the test categorized C/C=C/c1ccc(OC)cc1 . FALSE

Would you mind telling me which call this test gave COc1ccc(/C=C/c2cc(O)cc(O[C@@H]3O[C@H](CO)[C@@H](O)[C@H](O)[C@H]3O)c2)cc1O ? FALSE

Could you check what this test reported for COc1ccc(/C=C/c2cc(O)cc(O)c2)cc1 ? FALSE

What was the test verdict on COc1cc(O)cc(/C=C/c2ccccc2)c1 ? TRUE

Status in this test for CCCSP(=O)(OCC)SCCC ? FALSE

What call does the record list for Oc1cc(O)cc(/C=C/c2ccccc2)c1 ? FALSE

Assay result, entry C[C@H](COc1ccccc1)N[C@H](C)[C@H](O)c1ccc(O)cc1 — outcome? FALSE

====

protocolSummary: chemical genetic growth profiling, strain panel (AID 1159580);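 further: tested at 20 µM; growth read once vehicle control cultures reached saturation at 30 °C; 1 = growth at the plate median or of vehicle wells; lower values mean less growth of the strain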
measurementContext: S. cerevisiae deletion strains, growth OD, locus YLR133W, strain CKI1, active compounds read low
Hit rate of the full screen: of about 5,500 compounds, about 2,000 (36%) were called active. About 18% were inconclusive and are not listed. This is one part of the list.
Exercise: for every item that follows, state its recorded normalized growth.
Number only, please.

Kindly indicate its recorded normalized growth. Item: Clc1ccc(-c2noc(CSC3=NCCN3)n2)cc1 0.959

Answer with reported normalized growth of CC(=O)C(Sc1nc2ccccc2s1)C(C)=O 0.765

Dear colleague, please send me the reported normalized growth for CCOC(=O)CCc1cc(N=Cc2cc(Br)ccc2O)c(O)c(N=Cc2cc(Br)ccc2O)c1 when you can. 0.804

Specify measured normalized growth for CSc1cccc(N2C(=O)CC(c3c(Cl)cccc3Cl)CC2=O)c1 . 1

Return reported normalized growth. Input compound: Cc1nc(C(F)(F)F)c(C(=O)O/N=C(/N)c2ccc(Cl)cc2)s1 0.948

// fetch normalized growth given entry O=C(NCc1ccco1)c1csc(C2COc3ccccc3O2)n1 (stereo unspecified) 0.845

Consider the compound COc1ccccc1C(C[N+](=O)[O-])c1c(N)n(C)c(=O)n(C)c1=O (stereo unspecified) and give its recorded normalized growth. 0.616

Give the value of normalized growth reported for the following: CCOC(=O)c1c(N=Cc2cc(Br)c(Br)cc2O)sc2c1CCCC2 0.608

Please supply the value of reported normalized growth for the item O=C(Nc1ccc(Cl)cc1Cl)c1cnccc1C(F)(F)F 0.988

Return reported normalized growth. Input compound: Cc1cc(C(=O)O/N=C(/N)c2ccc(C(C)(C)C)cc2)no1 0.943

Complete the entry with normalized growth for CC12CC[C@@H](O)CC1=CC[C@@H]1C2CCC2(C)C(=O)CC[C@@H]12 (stereo partly specified) 0.904

Name the recorded normalized growth of the compound listed here: C/C(=N/OC(=O)Nc1ccc(Cl)cc1)c1ccc2c(c1)CCO2 0.884

For CCCCCc1ccc(S(=O)(=O)Nc2ccc3c(c2)C(=O)OC3)cc1 , write its normalized growth. 0.963

Using the record for CSc1c(C#N)c(-c2ccc(Cl)cc2)nn1C(=O)c1ccccc1Cl , state its measured normalized growth. 0.969

Tell me normalized growth reported for N#CC1=C(N)C(C#N)(C#N)C2(CCCCC2)C2CCCC=C12 (stereo unspecified) 1

Item NC(=NC(=O)c1ccc(Cl)cc1)c1cccs1 : provide normalized growth 0.83

Fill in reported normalized growth for this entry: COc1ccccc1NC(=O)Nc1nn(C)c2cccc(OC)c12 0.818

Quick one: give measured normalized growth for O=S(=O)(Nc1cc(C(F)(F)F)ccc1F)c1cc(C(F)(F)F)ccc1Cl 0.902

Tell me measured normalized growth for COc1cc(C(=O)Oc2c(Cl)cc(Cl)cc2C=Nc2cccc([N+](=O)[O-])c2)cc(OC)c1OC please. 0.621

Identify normalized growth associated with the compound N/C(=N/OC(=O)c1ccc(Cl)cc1)c1ccc(F)cc1F 0.659

Using the record for COc1cc(C(=O)Oc2c(Cl)cc(Cl)cc2C=Nc2ccc([N+](=O)[O-])cc2C#N)cc(OC)c1OC , state its measured normalized growth. 0.543

In one line, give reported normalized growth of the entry O=C(CCSc1cccs1)Nc1cccc(C(F)(F)F)c1 . 0.936

Quick one: give measured normalized growth for O=C(Nc1ccccn1)c1cc(-c2ccccc2)c(C(F)(F)F)s1 0.941

Give reported normalized growth value for CC1(C)C/C(=N/Nc2ccc(C(F)(F)F)cc2)c2cc(C(C)(C)C)c(O)c(O)c2O1 0.419

Consider the compound COc1cc(Cl)c(NS(=O)(=O)c2cc(Br)c(Br)s2)c(OC)c1 and give its recorded normalized growth. 0.959

Tell me normalized growth reported for Nc1cc(-c2ccc(OC(F)(F)F)cc2)nn1-c1ccc(Cl)c(Cl)c1 0.644
